B1: glmS ribozyme (parent)
chain: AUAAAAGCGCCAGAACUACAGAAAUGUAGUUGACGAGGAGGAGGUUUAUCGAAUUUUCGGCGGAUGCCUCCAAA

Variants of: B1
Test: self-cleavage kobs at 640 uM GlcN6P; higher = faster cleavage; RNA array
Details: with glucosamine-6-phosphate
Variants at the floor of the assay were thinned out.
endpoint-name: self-cleavage kobs at 640 uM GlcN6P

// known answers, use as guide
mutation_label="C10U G35C" endpoint_value="< 1e-05 s⁻¹"
mutation_label="A14U A48U G51A A52G" endpoint_value="< 1e-05 s⁻¹"
mutation_label="C58U U69G" endpoint_value="6.7e-05 s⁻¹"
mutation_label="G32U A42C C58U" endpoint_value="< 1e-05 s⁻¹"
mutation_label="A33C U45C U47A A48G" endpoint_value="< 1e-05 s⁻¹"
mutation_label="U49G C71U" endpoint_value="0.000246 s⁻¹"
mutation_label="A48C U54G" endpoint_value="0.000114 s⁻¹"
mutation_label="A12C G59A G63C" endpoint_value="< 1e-05 s⁻¹"

Supply recorded self-cleavage kobs at 640 uM GlcN6P for U30A G60A here.
< 1e-05 s⁻¹

Supply recorded self-cleavage kobs at 640 uM GlcN6P for G29C A33G G40A U56C here.
< 1e-05 s⁻¹
